- Measurement Target: T1, human CD81 on CD81-expressing cells (Jurkat E6.1, human PBMC, Ramos) (human, UniProt P60033 1-236)
- T1 sequence: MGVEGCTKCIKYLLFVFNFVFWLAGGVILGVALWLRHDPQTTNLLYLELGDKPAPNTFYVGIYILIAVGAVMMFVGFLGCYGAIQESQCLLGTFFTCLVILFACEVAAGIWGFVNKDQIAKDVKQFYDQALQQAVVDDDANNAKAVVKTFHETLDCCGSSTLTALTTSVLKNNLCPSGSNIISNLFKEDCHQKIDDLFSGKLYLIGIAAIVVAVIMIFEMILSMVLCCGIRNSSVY
- Measurement Protocol: cell-based or functional assay
Metric: Jurkat chemotaxis (% of control IgG4) at 0.01 µg/mL (%)
Entry rule: numbers only, all in %.

Examples from the recorded data:
002-A07 S115G (antibody, human IgG4 S228P, lambda, V domains shown, IgG4 S228P; glycosylation site mutant of 002-A07 VL) VH: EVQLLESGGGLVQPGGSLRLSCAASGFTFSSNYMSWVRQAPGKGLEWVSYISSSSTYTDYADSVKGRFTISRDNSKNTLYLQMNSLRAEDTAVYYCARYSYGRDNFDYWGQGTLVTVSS VL: QSVLTQPPSASGTPGQRVTISCTGSTSNIGAGYDTHWYQQLPGTAPKLLIYGNSNRPSGVPDRFSGSKSGTSASLAISGLRSEDEADYYCQSYDTNLGVWVFGGGTKLTVLG ... 74
002-C09 (antibody, human IgG4 S228P, lambda, V domains shown, IgG4 S228P) VH: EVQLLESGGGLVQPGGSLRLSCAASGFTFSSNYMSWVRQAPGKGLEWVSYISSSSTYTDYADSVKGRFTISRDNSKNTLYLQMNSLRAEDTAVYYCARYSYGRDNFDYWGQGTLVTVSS VL: QSVLTQPASASGTPGQRVTISCTGSTSNIGAGYGTHWYQRLPGTAPKLLIYGNSNRPSGVPDRFSGSKSGTSASLAISGLRSEDEADYYCQSYDTNLSGWVFGGGTKLTVLG ... 82

Indicate the recorded Jurkat chemotaxis (% of control IgG4) at 0.01 µg/mL value for this binder: 003-A10 (antibody, human IgG4 S228P, lambda, V domains shown, IgG4 S228P) VH: EVQLLESGGGLVQPGGSLRLSCAASGFTFSSNYMSWVRQAPGKGLEWVSYISSSSTYTDYADSVKGRFTISRDNSKNTLYLQMNSLRAEDTAVYYCARYSYGRDTFDYWGQGTLVTVSS VL: QSVLTQPFSASGTPGQRVTISCTGSTSNIGAGYDTHWYQQLPGTAPKLLIYGNSNRPSGVPDRFSGSKSGTSASLAISGLRSEDEADYYCQSYDTNLSVWVFGGGTKLTVLG
93

Hello, the source for this data is patent US20150139990A1, in case you need it.
